- Target desc: human recombinant 5-HT2C receptor (Homo sapiens)
- Sequence (P28335 33-458): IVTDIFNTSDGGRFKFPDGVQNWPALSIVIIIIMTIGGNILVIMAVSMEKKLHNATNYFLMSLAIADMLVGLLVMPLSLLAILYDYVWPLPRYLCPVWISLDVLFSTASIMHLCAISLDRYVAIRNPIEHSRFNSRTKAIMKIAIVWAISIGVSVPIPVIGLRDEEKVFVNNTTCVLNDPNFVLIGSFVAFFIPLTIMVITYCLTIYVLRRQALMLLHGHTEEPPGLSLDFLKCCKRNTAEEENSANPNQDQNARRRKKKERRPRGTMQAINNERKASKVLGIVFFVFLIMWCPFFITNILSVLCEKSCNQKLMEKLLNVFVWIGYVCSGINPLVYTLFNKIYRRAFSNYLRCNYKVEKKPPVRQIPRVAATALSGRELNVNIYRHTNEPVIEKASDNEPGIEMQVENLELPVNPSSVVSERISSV
- Protocol description: Affinity for 5-HT2C receptor binding sites (competitive radioligand binding, [3H]mesulergine)
- Conditions: membranes of CHO with h5-HT2C, * = tested as hydrochloride salt
pKi: −log10 of the molar value. Structures can show the parent of a compound that is named as a salt.
Recorded pKi determines the group label, using class 0 (below 6), class 1 (6 to below 7), class 2 (7 or more)

Worked set:
Compound: CCN(CC)c1nc2c(c(-c3ccc(C#N)cc3)n1)CCN(Cc1ccccc1)C2 [Example 29]
Category: class 0
//
Compound: C[C@@H]1COCCN1c1nc2c(c(-c3cnc4ccccc4c3)n1)CCNCC2 [Example 99]
Category: class 1

### Prompt Kindly identify the class of COc1ccc(-c2nc(N3CCCCCC3)nc3c2CCNC3)cc1 [Example 36] .
### Response class 1

### Prompt Kindly identify the class of CCN(CC)c1nc2c(c(-c3ccc(C)cc3)n1)CCCNC2 [Example 2] .
### Response class 1

### Prompt Kindly identify the class of Cc1ccc(-c2nc(N3CCCCCC3)nc3c2CCN(Cc2ccccc2)C3)cc1 [Example 33] .
### Response class 0

### Prompt Kindly identify the class of COc1ccc(-c2nc(N3CCCC3C)nc3c2CCNCC3)cc1Cl (stereo not shown) [Example 66] .
### Response class 2

### Prompt Kindly identify the class of C[C@@H]1CCC[C@H](C)N1c1nc2c(c(-c3ccc(F)c(F)c3)n1)CCNCC2 [Example 83] .
### Response class 2

### Prompt Kindly identify the class of CCN(CC)c1nc2c(c(-c3ccc(Cl)cc3)n1)CNCC2 [Example 46, hydrochloride] .
### Response class 1

### Prompt Kindly identify the class of Cc1ccc(-c2nc(N3CCS(=O)(=O)CC3)nc3c2CCNCC3)cc1Cl [Example 92] .
### Response class 0

### Prompt Kindly identify the class of Cc1ccc(-c2nc(N3CCOCC3)nc3c2CNCC3)cc1 [Example 49] .
### Response class 1

### Prompt Kindly identify the class of CCN(C)c1nc2c(c(-c3ccc(F)cc3)n1)CNCC2 [Example 44, hydrochloride] .
### Response class 1

### Prompt Kindly identify the class of Cc1ccc(-c2nc(N3[C@H](C)CCC[C@@H]3C)nc3c2CCNCC3)cc1Cl [Example 79] .
### Response class 2

### Prompt Kindly identify the class of Cc1ccc(-c2nc(N3CCC(F)CC3)nc3c2CCNCC3)cc1Cl [Example 76] .
### Response class 2

### Prompt Kindly identify the class of CCN(CC)c1nc2c(c(-c3ccc(C)cc3)n1)CCN(Cc1ccccc1)C2 [Example 25] .
### Response class 0
